Biological target: T1, IL-18 receptors on HEK-Blue IL-18 reporter cells (UniProt Q13478 19-541; O95256 20-599, limits assumed)
T1 sequence (looked up) 1: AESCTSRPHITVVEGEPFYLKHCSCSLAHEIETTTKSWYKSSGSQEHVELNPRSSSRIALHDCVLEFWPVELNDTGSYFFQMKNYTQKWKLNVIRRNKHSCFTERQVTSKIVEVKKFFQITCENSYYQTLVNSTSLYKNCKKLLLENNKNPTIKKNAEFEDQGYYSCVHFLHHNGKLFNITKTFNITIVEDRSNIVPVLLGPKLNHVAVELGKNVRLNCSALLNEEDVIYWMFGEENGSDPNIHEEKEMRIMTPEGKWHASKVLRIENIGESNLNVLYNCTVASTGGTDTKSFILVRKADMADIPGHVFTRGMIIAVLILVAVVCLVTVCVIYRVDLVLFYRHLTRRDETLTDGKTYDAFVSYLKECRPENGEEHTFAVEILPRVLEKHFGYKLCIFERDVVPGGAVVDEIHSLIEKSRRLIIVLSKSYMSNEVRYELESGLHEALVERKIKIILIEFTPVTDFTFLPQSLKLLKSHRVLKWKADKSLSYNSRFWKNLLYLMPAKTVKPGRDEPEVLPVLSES
T1 sequence (looked up) 2: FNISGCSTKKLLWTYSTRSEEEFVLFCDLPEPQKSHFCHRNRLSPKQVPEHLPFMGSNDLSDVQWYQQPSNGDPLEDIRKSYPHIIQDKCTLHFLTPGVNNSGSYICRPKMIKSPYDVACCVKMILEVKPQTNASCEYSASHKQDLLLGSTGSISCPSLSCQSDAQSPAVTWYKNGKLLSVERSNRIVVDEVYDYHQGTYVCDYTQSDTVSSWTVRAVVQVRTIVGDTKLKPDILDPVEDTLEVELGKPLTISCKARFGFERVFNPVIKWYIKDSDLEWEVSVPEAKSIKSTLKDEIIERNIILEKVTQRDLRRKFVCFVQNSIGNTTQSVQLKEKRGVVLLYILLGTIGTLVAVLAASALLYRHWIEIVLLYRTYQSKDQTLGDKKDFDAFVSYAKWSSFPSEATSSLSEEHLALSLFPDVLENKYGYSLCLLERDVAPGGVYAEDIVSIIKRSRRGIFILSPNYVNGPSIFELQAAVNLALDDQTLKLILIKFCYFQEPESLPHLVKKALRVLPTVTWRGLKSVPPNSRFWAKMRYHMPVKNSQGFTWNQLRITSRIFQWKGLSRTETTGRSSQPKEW
Assay: cell-based or functional assay
endpoint: HEK-blue EC50 (pM) - BP

A selection of reference data follows.
[
  {
    "binder": "human IL-18 variant G3V/E6K/K53A (ligand) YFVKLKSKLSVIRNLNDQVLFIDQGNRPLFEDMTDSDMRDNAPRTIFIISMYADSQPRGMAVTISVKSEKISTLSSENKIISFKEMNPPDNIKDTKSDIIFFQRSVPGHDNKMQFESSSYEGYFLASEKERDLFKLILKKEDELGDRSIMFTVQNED",
    "measuredResult": "0.038 pM"
  },
  {
    "binder": "human IL-18 variant G3T/E6K/K53A/M60K (ligand) YFTKLKSKLSVIRNLNDQVLFIDQGNRPLFEDMTDSDMRDNAPRTIFIISMYADSQPRGKAVTISVKSEKISTLSSENKIISFKEMNPPDNIKDTKSDIIFFQRSVPGHDNKMQFESSSYEGYFLASEKERDLFKLILKKEDELGDRSIMFTVQNED",
    "measuredResult": "0.061 pM"
  }
]

Please report HEK-blue EC50 (pM) - BP for every entry that follows.
1. human IL-18 variant G3T/E6K/K53S/M60K (ligand) YFTKLKSKLSVIRNLNDQVLFIDQGNRPLFEDMTDSDMRDNAPRTIFIISMYSDSQPRGKAVTISVKSEKISTLSSENKIISFKEMNPPDNIKDTKSDIIFFQRSVPGHDNKMQFESSSYEGYFLASEKERDLFKLILKKEDELGDRSIMFTVQNED
2. human IL-18 variant G3T/K53A/M60K (ligand) YFTKLESKLSVIRNLNDQVLFIDQGNRPLFEDMTDSDMRDNAPRTIFIISMYADSQPRGKAVTISVKSEKISTLSSENKIISFKEMNPPDNIKDTKSDIIFFQRSVPGHDNKMQFESSSYEGYFLASEKERDLFKLILKKEDELGDRSIMFTVQNED

Ans:
0.33 pM
0.843 pM

Q: Which value of HEK-blue EC50 (pM) - BP has been reported for human IL-18 variant G3V/K53S/M60K (ligand) YFVKLESKLSVIRNLNDQVLFIDQGNRPLFEDMTDSDMRDNAPRTIFIISMYSDSQPRGKAVTISVKSEKISTLSSENKIISFKEMNPPDNIKDTKSDIIFFQRSVPGHDNKMQFESSSYEGYFLASEKERDLFKLILKKEDELGDRSIMFTVQNED in the records?
Ans: 2.11 pM
